The reader will find reported Dmax values listed item by item below.
Biological target: androgen receptor (AR) (Homo sapiens, UniProt P10275)
Sequence (P10275 1-920): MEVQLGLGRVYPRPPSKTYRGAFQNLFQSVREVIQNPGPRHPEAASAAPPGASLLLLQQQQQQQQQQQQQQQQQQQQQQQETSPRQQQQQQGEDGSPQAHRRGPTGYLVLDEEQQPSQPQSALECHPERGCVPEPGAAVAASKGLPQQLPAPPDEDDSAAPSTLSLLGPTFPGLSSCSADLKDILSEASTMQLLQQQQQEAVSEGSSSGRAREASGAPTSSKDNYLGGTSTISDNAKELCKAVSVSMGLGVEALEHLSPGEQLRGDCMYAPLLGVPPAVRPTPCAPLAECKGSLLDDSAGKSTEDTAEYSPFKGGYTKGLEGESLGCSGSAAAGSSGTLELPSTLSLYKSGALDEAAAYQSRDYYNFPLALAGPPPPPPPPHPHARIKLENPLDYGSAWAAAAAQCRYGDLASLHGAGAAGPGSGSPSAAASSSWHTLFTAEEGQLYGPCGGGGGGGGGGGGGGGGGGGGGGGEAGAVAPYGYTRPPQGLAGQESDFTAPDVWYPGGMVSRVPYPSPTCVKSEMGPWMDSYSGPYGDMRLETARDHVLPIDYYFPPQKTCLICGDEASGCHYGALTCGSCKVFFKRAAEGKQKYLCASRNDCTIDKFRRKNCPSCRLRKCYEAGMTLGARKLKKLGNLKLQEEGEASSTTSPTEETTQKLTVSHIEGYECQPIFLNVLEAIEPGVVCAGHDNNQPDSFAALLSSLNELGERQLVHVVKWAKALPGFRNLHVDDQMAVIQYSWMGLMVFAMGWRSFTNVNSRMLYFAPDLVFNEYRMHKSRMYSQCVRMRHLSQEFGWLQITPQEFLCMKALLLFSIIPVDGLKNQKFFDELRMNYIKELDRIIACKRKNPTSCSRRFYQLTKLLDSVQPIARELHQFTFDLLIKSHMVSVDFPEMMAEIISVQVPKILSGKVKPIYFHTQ
Experiment: Degradation of androgen receptor (AR) protein in VCaP cells by ELISA
Type: cell-based
Settings: VCaP
quantityName: Dmax

| compound | quantityName | assayValue |
| --- | --- | --- |
| N#Cc1ccc(O[C@H]2CC[C@H](NC(=O)c3ccc(N4CCC(CN5CC6(C5)CN(c5cc7c(cc5F)C(=O)N(C5CCC(=O)NC5=O)C7=O)C6)CC4)nn3)CC2)cc1Cl (stereo partly drawn) [Compound 122] | Dmax | > 80% |
| N#Cc1ccc(O[C@H]2CC[C@H](NC(=O)c3ccc(N4C[C@H]5CC[C@@H](C4)N5C[C@H]4[C@@H]5CN(c6cc7c(cc6F)C(=O)N(C6CCC(=O)NC6=O)C7=O)C[C@@H]54)nn3)CC2)cc1Cl (stereo partly drawn) [Compound 239] | Dmax | 60 to 80% |
| N#Cc1ccc(O[C@H]2CC[C@H](NC(=O)c3ccc(N4CCC(CN5CCC6(CC5)CN(c5cc7c(cc5F)C(=O)N(C5CCC(=O)NC5=O)C7=O)C6)CC4)nn3)CC2)cc1 (stereo partly drawn) [Compound 132] | Dmax | 60 to 80% |

---

target: androgen receptor (AR) (Homo sapiens); assay: Degradation of androgen receptor (AR) protein in VCaP cells by ELISA; format: cell-based; conditions: VCaP, AR degradation, VCaP cells, 16 h, ELISA, Table 3-1; read-out: Dmax (%)

| compound | Dmax |
| --- | --- |
| N#Cc1ccc(O[C@H]2CC[C@H](NC(=O)c3ccc(N4CCC5(CC4)CC(N4CCN(c6cc7c(cc6F)C(=O)N(C6CCC(=O)NC6=O)C7=O)CC4)C5)nn3)CC2)cc1Cl (stereo partly shown) | > 80% |
| N#Cc1ccc(O[C@H]2CC[C@H](NC(=O)c3ccc(N4CCC(N5CC6(CCN(c7ccc8c(c7)C(=O)N(C7CCC(=O)NC7=O)C8=O)CC6)C5)CC4)nn3)CC2)cc1Cl (stereo partly shown) | > 80% |
| N#Cc1ccc(O[C@H]2CC[C@H](NC(=O)c3cnc(N4CCC(CN5CCC6(C5)CN(c5cc7c(cc5F)C(=O)N(C5CCC(=O)NC5=O)C7=O)C6)CC4)cn3)CC2)cc1Cl (stereo partly shown) | > 80% |
| N#Cc1ccc(O[C@H]2CC[C@H](NC(=O)c3cnc(N4CC5(CCN(CC6CCN(c7cc8c(cc7F)C(=O)N(C7CCC(=O)NC7=O)C8=O)CC6)C5)C4)cn3)CC2)cc1Cl (stereo partly shown) | > 80% |
| N#Cc1ccc(O[C@H]2CC[C@H](NC(=O)c3cnc(N4CC5CN(CC6CCN(c7cc8c(cc7F)C(=O)N(C7CCC(=O)NC7=O)C8=O)CC6)CC5C4)nc3)CC2)cc1Cl (stereo partly shown) | > 80% |
| N#Cc1ccc(O[C@H]2CC[C@H](NC(=O)c3nnc(N4CC5(CCN(C6CCN(c7ccc8c(c7)C(=O)N(C7CCC(=O)NC7=O)C8=O)CC6)CC5)C4)s3)CC2)cc1Cl (stereo partly shown) | > 80% |
| N#Cc1ccc(O[C@H]2CC[C@H](NC(=O)c3cnc(N4CCC(CN5CCC6(C5)CN(c5ccc7c(c5)C(=O)N(C5CCC(=O)NC5=O)C7=O)C6)CC4)cn3)CC2)cc1Cl (stereo partly shown) | > 80% |
| N#Cc1ccc(O[C@H]2CC[C@H](NC(=O)c3ncnn3[C@H]3CC[C@H](CN4CCC5(CC4)CN(c4ccc6c(c4)C(=O)N(C4CCC(=O)NC4=O)C6=O)C5)CC3)CC2)cc1Cl (stereo partly shown) | 60 to 80% |
| N#Cc1ccc(O[C@H]2CC[C@H](NC(=O)c3ccc(N4CC5(CCN(CC6CCN(c7ccc8c(c7)C(=O)N(C7CCC(=O)NC7=O)C8=O)CC6)CC5)C4)cc3)CC2)cc1Cl (stereo partly shown) | > 80% |
| CC1(C)[C@H](Oc2ccc(C#N)c(Cl)c2)C(C)(C)[C@H]1N1Cc2nc(C#CC3CCC(N4CC5(CCN(c6ccc7c(c6)C(=O)N(C6CCC(=O)NC6=O)C7=O)C5)C4)CC3)ccc2C1=O (stereo partly shown) | 40 to 60% |
| N#Cc1ccc(O[C@H]2CC[C@H](NC(=O)c3cnc(N4CCC(CN5CCC6(CC5)CN(c5cc7c(cc5F)C(=O)N(C5CCC(=O)NC5=O)C7=O)C6)CC4)nc3)CC2)cc1Cl (stereo partly shown) | > 80% |
| N#Cc1ccc(O[C@H]2CC[C@H](NC(=O)c3cnc(N4CCN(C5CC6(CCN(c7cc8c(cc7F)C(=O)N(C7CCC(=O)NC7=O)C8=O)CC6)C5)CC4)cn3)CC2)cc1Cl (stereo partly shown) | > 80% |
| N#Cc1ccc(O[C@H]2CC[C@H](NC(=O)c3ccc(N4CCC(N5CC6(CCN(c7cc8c(cc7F)C(=O)N(C7CCC(=O)NC7=O)C8=O)CC6)C5)CC4)nn3)CC2)cc1C(F)(F)F (stereo partly shown) | > 80% |
| CC1(C)[C@H](Oc2ccc(C#N)c(Cl)c2)C(C)(C)[C@H]1N1Cc2nc(C#CC3CCC(N4CCC5(CN(c6cc7c(cc6F)C(=O)N(C6CCC(=O)NC6=O)C7=O)C5)C4)CC3)ccc2C1=O (stereo partly shown) | > 80% |
| N#Cc1ccc(O[C@H]2CC[C@H](NC(=O)c3ccc(N4CC5(CC(N6CCN(c7cc8c(cc7F)C(=O)N(C7CCC(=O)NC7=O)C8=O)CC6)C5)C4)nn3)CC2)cc1Cl (stereo partly shown) | > 80% |
| CC1(C)[C@H](Oc2ccc(C#N)c(Cl)c2)C(C)(C)[C@H]1N1Cc2nc(C#C[C@H]3C[C@H](N4CCN(c5cc6c(cc5F)C(=O)N(C5CCC(=O)NC5=O)C6=O)CC4)C3)ccc2C1=O (stereo partly shown) | > 80% |
| N#Cc1ccc(O[C@H]2CC[C@H](NC(=O)c3cnc(N4CC5CC4CN5C[C@H]4[C@@H]5CN(c6cc7c(cc6F)C(=O)N(C6CCC(=O)NC6=O)C7=O)C[C@@H]54)cn3)CC2)cc1Cl (stereo partly shown) | 40 to 60% |
| N#Cc1ccc(O[C@H]2CC[C@H](NC(=O)c3cnc(N4CCC(CN5CCC6(CC5)CN(c5cc7c(cc5F)C(=O)N(C5CCC(=O)NC5=O)C7=O)C6)CC4)cn3)CC2)cc1Cl (stereo partly shown) | > 80% |
| C[C@@H]1CN(c2ccc(C(=O)N[C@H]3CC[C@H](Oc4ccc(C#N)c(Cl)c4)CC3)nn2)CCN1C[C@H]1[C@@H]2CN(c3cc4c(cc3F)C(=O)N(C3CCC(=O)NC3=O)C4=O)C[C@@H]21 (stereo partly shown) | 60 to 80% |
